Please respond with reported MIC for every item in the list.
System: Escherichia coli
Measurement Protocol: Antimicrobial activity against armA positive Escherichia coli TOP10 producing beta lactamase CTX-M-3 with plasmid MEZ by Etest method
Type: functional
Give bare numbers, in µg/mL.

• CCn1cc(C(=O)O)c(=O)c2cc(F)c(N3CCNCC3)cc21 = 0.016

Next item in the queue.
State its MIC: C[C@@H](O)[C@H]1C(=O)N2C(C(=O)O)=C(SCCNC=N)C[C@H]12 [IMIPENEM ANHYDROUS] 0.19

###

System: Escherichia coli
Measurement Protocol: Antimicrobial activity against Escherichia coli TOP10 by Etest method
Assay type: functional
Metric: MIC (µg/mL)
Answers are plain numbers, in µg/mL.

- NC[C@H]1O[C@H](O[C@H]2[C@H](O)[C@@H](O[C@H]3O[C@H](CO)[C@@H](O)[C@H](N)[C@H]3O)[C@H](N)C[C@@H]2N)[C@H](N)C[C@@H]1O: 0.38

Can you give me MIC for all of these, one by one?
1. CC(C)(O/N=C(\C(=O)N[C@@H]1C(=O)N2C(C(=O)[O-])=C(C[n+]3ccccc3)CS[C@H]12)c1csc(N)n1)C(=O)O
2. NCC[C@H](O)C(=O)N[C@@H]1C[C@H](N)[C@@H](O[C@H]2O[C@H](CN)[C@@H](O)[C@H](O)[C@H]2O)[C@H](O)[C@H]1O[C@H]1O[C@H](CO)[C@@H](O)[C@H](N)[C@H]1O

1: 0.38; 2: 1

###

Test system: Escherichia coli
Measurement Protocol: Antimicrobial activity against Escherichia coli TOP10 harboring plasmid VOG1 expressing RmtB, TEM-1, and QepA gene by Etest method
Type: functional
Assign MIC to each entry below.
One number for each entry, in µg/mL.

Example molecules with recorded MIC:
- C[C@@H](O)[C@H]1C(=O)N2C(C(=O)O)=C(SCCNC=N)C[C@H]12 [IMIPENEM ANHYDROUS]: 0.19
- CO/N=C(\C(=O)N[C@@H]1C(=O)N2C(C(=O)O)=C(COC(C)=O)CS[C@H]12)c1csc(N)n1: 0.047
- CC(C)(O/N=C(\C(=O)N[C@@H]1C(=O)N2C(C(=O)[O-])=C(C[n+]3ccccc3)CS[C@H]12)c1csc(N)n1)C(=O)O: 0.38

// next entry
Report MIC, nothing else, for this molecule: CCn1cc(C(=O)O)c(=O)c2cc(F)c(N3CCNCC3)cc21 0.032

###

System: Escherichia coli
Measurement Protocol: Antimicrobial activity against armA positive Escherichia coli TOP10 producing beta lactamase CTX-M-3 with plasmid MEZ by Etest method
Assay type: functional
What MIC was measured for each of the following?

Answered cases to consult:
* NC[C@H]1O[C@H](O[C@H]2[C@H](O)[C@@H](O[C@H]3O[C@H](CO)[C@@H](O)[C@H](N)[C@H]3O)[C@H](N)C[C@@H]2N)[C@H](N)C[C@@H]1O | > 256 µg/mL
* CC(C)(O/N=C(\C(=O)N[C@@H]1C(=O)N2C(C(=O)[O-])=C(C[n+]3ccccc3)CS[C@H]12)c1csc(N)n1)C(=O)O | 3 µg/mL

Please turn your attention to the following entry.
For the compound O=C(O)c1cn(C2CC2)c2cc(N3CCNCC3)c(F)cc2c1=O , give its measured MIC value. < 0.002 µg/mL
